- Test system: TO-N3 (biotin conjugate)
- assay summary: pull-down binding Z-score (relative to library population); higher = stronger binding
- condition details: RNA library: Library-2
Tag: Met if measured pull-down binding Z-score is not below -0.05, Not met if it is.

residues: CACUCUCCCUAAUGGGGCUGAAGACAGCUCAGGGGCAGGGUG [hsa-mir-4472-1]
class label: Not met
//
residues: GUGGCCCUGAUGGCUAC
class label: Not met
//
residues: GCUGCUGCCCCAGAGGCCCAGCAGGUGUCCAGAAC [hsa-mir-6750]
class label: Met
//
residues: GCGCUGCCAGAAACUGGCCAGCGC [bulge-C]
class label: Not met
//
residues: GGAAUAAGUACGAUACUUACCUG [U1snRNP5ss-5]
class label: Met
//
residues: CCGUGCCCUGGCCACUCAUUCGG [hsa-mir-6741]
class label: Met
//
residues: UCAUUUUCCUUAAAAAAUGA [hsa-mir-3128]
class label: Not met
//
residues: GCUAAAUUGUUACAUAAACCUAUUGUUUGGCAUGUUAACAAUGCAACUAAUAAAGCCACGUAUAAACCAAAUACCUGGUGUAUACGUUGUCUUUGGAGC
class label: Not met

## Task Check the entry GUGAUAGAGCCAUGCCUAACAUGCUUAGAAUUAUGGCCUCAC : does pull-down binding Z-score equal or exceed -0.05?
## Result Met

## Task Does pull-down binding Z-score meet or surpass -0.05 for ACAGUUUGAGGGUCUAUGAUACCACCCGGUACAGGAGAUAACUGU [hsa-let-7g] ?
## Result Met

* * *

- Tested on: TO-3-N3 (biotin conjugate)
- assay summary: pull-down binding Z-score (relative to library population); higher = stronger binding
- condition details: RNA library: Library-2
Give pull-down binding Z-score for every item shown.
Answers are plain numbers.

Fill in pull-down binding Z-score for each of the 5 sequences listed.
1. CACACAUACAUAUAUAUAUGUUUG [hsa-mir-3149]
2. GCUUGUCACACCGUUUCUAUAGAUUAGCUAAUGAGUGUGCUCAAGU
3. AACGGGGCGGGCCCUGGGCGGGGUAA [G4_2A2_VEGF-Pu22-mt2]
4. GUAAGAGAGACUCUCGCUUCCUGC [hsa-mir-874]
5. AUGAGUACGAACUUAUGUACUCAU

## Result
[0.618, -0.601, 8.94, 0.0696, -0.0199]

* * *

- System: TO-N3-2 (biotin conjugate)
- assay summary: pull-down binding Z-score (relative to library population); higher = stronger binding
- condition details: RNA library: Library-2
property name: pull-down binding Z-score
One number for each entry.

The following sequences have reported results that may help.
residues: CUUCUUGAAAUACUCCAAAAAGAGAAAGUCAACAUCAAUAUUGUUGGUGACUUUAAACUUAAUGAAG
experimental target: TO-N3-2 (biotin conjugate)
observed measurement: -0.596

residues: UCGUGUUAAAAAUCUGAAUUCUUCUAGAGUUCCUGAUCUUCUGGUCUAAACGAACUAAAUAUUAUAUUAGUUUUUCUGUUUGGAACUUUAAUUUUAGCCAUGG
experimental target: TO-N3-2 (biotin conjugate)
observed measurement: -0.59

residues: UGAUUUUUGUGGAAAGGGCUAUCAUCUUAUGUCCUUCCCUCAGUCA [SHAPE_invivo_SARS-CoV-2_Motif_462]
experimental target: TO-N3-2 (biotin conjugate)
observed measurement: -0.49

residues: GUAAGAGAGACUCUCGCUUCCUGC [hsa-mir-874]
experimental target: TO-N3-2 (biotin conjugate)
observed measurement: 0.462

residues: CAGAGGGAGGCCAAGAAGACCUCUG [hsa-mir-4793]
experimental target: TO-N3-2 (biotin conjugate)
observed measurement: 0.354

residues: AGUUACACAGCUCACGAGUGCCU [hsa-mir-370]
experimental target: TO-N3-2 (biotin conjugate)
observed measurement: 0.694

residues: GGAGCUCUGUGCCUUUGGGUCCUGGUGAGCUCU [hsa-mir-6070]
experimental target: TO-N3-2 (biotin conjugate)
observed measurement: 0.681

residues: GGCUGGUGGCACUACUGAAAUGCUAGCGAAAGCUUUGAGAAAAGUGCCAACAGAC
experimental target: TO-N3-2 (biotin conjugate)
observed measurement: 0.4

residues: AGGUAAAACCAACAGUGGUUGUUAAUGCAGCCAAUGUUUACCU
experimental target: TO-N3-2 (biotin conjugate)
observed measurement: -1.45

residues: GCCUUUCAACAUAAUGGC [hsa-mir-548w]
experimental target: TO-N3-2 (biotin conjugate)
observed measurement: -0.827

For each entry beneath this line, provide reported pull-down binding Z-score.
1. CUGGGAAACUGUUAAAAUUCAGUGGUCCCAG [IAV_invivo_PB2_1_Motif_27+IAV_invivo_PB2_1_Motif_27]
2. AGGUUGGCUGGGCCAGGCCUGACCU [hsa-mir-4722]
3. UUACUGCAGGGAUCUUAGCAGUAC [hsa-mir-583]
4. GGAUUUGCUUCCUGUCACAAAUCA [hsa-mir-23a]
5. UCCACCUAGACGGGCCUGGGUCAA [hsa-mir-4698]

## Result
[-0.97, 1.16, 0.435, -0.188, 0.907]

Respectfully, I request pull-down binding Z-score for each entry included below.
1. CAGAGUACUCAAUGGUCUUUG
2. CUGGGAAGAGACCAUGAACAGGUUAGUCCAG [hsa-mir-4327]
3. UGUGGACAUGUCAAUGACAUAUGGACAACAGUUUGGUCCAACUUAUUUGGAUGGAGCUGAUGUUACUAAAAUAAAACCUCAUAAUUCACA
4. AGUCUCUGAAGAGAGCUGUGGACUGA [hsa-mir-6721]

## Result
-0.606
-0.495
-0.453
0.916

Recorded pull-down binding Z-score (sequence CCUCUAAAAGCCCCAAAAGAAAUUAUCUUCUUAGAGGGAGAAACACUUCCCACAGAAGUGUUAACAGAGG ): 0.314

* * *

- System: TO-3-N3-2 (biotin conjugate)
- assay summary: pull-down binding Z-score (relative to library population); higher = stronger binding
- condition details: RNA library: Library-2
property name: pull-down binding Z-score
Answers are plain numbers.

residues: CAGUUUGGUCCAACUUAUUUGGAUGGAGCUG
pull-down binding Z-score: -0.514
--
residues: GACUGGACAACAUGAUGAGCCCAAACCAAUC [hsa-mir-5092]
pull-down binding Z-score: 0.166
--
residues: CAAGGCUAUUGAUGGUGGUGUCACUCGUGACAUAGCAUCUACAGAUACUUG [SHAPE_invivo_SARS-CoV-2_Motif_176]
pull-down binding Z-score: -0.243
--
residues: CUGGCAUUUACGAGUCAGAGUUCUUACAGAGCUGC [hsa-mir-6514]
pull-down binding Z-score: 0.16
--
residues: GUUGCAUGUUGUCACGGCCUCAAUGCAAU [hsa-mir-32]
pull-down binding Z-score: -0.202

The following sequences each have a reported value; give each one's pull-down binding Z-score.
1. CACUUCUUUCUUUGAGAGAAGUG
2. GGAGCAGACAGACCCAACCUCAUGCUCC [hsa-mir-6763]
3. AAGAAGGUCAAAUCAAUGAUAUGAUUUUAUCUCUUCUU
4. UUCUAAUGCCAAGAA [hsa-mir-1279]
5. UCCACCUAGACGGGCCUGGGUCAA [hsa-mir-4698]
6. GGGCGCCGGCGGCCGGGAGAUCCGCGCUUCCUGAAUCCCGGCCGGCCCGCCCGGCGCCC [hsa-mir-4497]
7. AAGACUCAUCUCUAUGAUGGGUUUU

## Result
1: -0.228; 2: -0.471; 3: 0.176; 4: -0.117; 5: -0.0391; 6: -0.00137; 7: -0.575

Dear reader, for each entry below, please note its pull-down binding Z-score.
1. CACUCAGGCAGUGCCAUGAGC [hsa-mir-6811]
2. GGAGAGUGUUCAGACAUUCUUU [SHAPE_invitro_SARS-CoV-2_Motif_44]
3. CUGCAGUGAGCGAUCGGUGCUCUGGGG [hsa-mir-503]
4. UGCAGUUAGUGAAGCAGCUUAGAAUCUACUGCC [hsa-mir-18b]
5. UGAGUUUA [hsa-mir-451a]
6. ACCUGCUCAGUAUGAACUUAAGCAUGGU
7. GAUUGGUCUGUGGUCCUCUC [hsa-mir-3615]

## Result
[-0.366, -0.361, 0.308, 0.625, -0.207, -0.184, -0.217]

* * *

- Tested on: TO-3-N3-2 (biotin conjugate)
- assay summary: pull-down binding Z-score (relative to library population); higher = stronger binding
- condition details: RNA library: Library-2
Would you mind telling me the reported pull-down binding Z-score of each entry?
Give bare numbers.

Before answering, review these 8 worked examples.
residues: CUGGGUGGGACACUCAG [hsa-mir-4692]
experimental target: TO-3-N3-2 (biotin conjugate)
pull-down binding Z-score: 0.311
--
residues: ACAGCGCCACGGAAGAGGACGCA [hsa-mir-941-4_941-5_941-2_941-3_941-1]
experimental target: TO-3-N3-2 (biotin conjugate)
pull-down binding Z-score: -0.211
--
residues: UGGAGUCAGUAUUGGUCUGGCCA [hsa-mir-4255]
experimental target: TO-3-N3-2 (biotin conjugate)
pull-down binding Z-score: 0.104
--
residues: UGUAAAUAACUACAAUUCUCUUAACUCCGUAGCAGUUGC [hsa-mir-7844]
experimental target: TO-3-N3-2 (biotin conjugate)
pull-down binding Z-score: -0.0721
--
residues: GUAUGAGUGUAUUGGUCUUCAUAA [hsa-mir-9-2]
experimental target: TO-3-N3-2 (biotin conjugate)
pull-down binding Z-score: 0.203
--
residues: UCCUAGGCGGGUCGCUGCGGUACCUCCCUCCUGUCUGUGGCGGUGGGAUCCCGUGGCCGUGUUUUCCUGGUG [hsa-mir-663b]
experimental target: TO-3-N3-2 (biotin conjugate)
pull-down binding Z-score: -0.0831
--
residues: CUACAAAGCAACCAUGAUCUGUAUUGUCAAGUCCAUGGUAAUGCACAUGUAG
experimental target: TO-3-N3-2 (biotin conjugate)
pull-down binding Z-score: -0.092
--
residues: UCAGGAUCUACUCAUGUCGUCUUUGG [hsa-mir-573]
experimental target: TO-3-N3-2 (biotin conjugate)
pull-down binding Z-score: -0.199

Batch of 5 sequences: report pull-down binding Z-score for each.
1. UGAGUACUGUAGGCACGGCACUUGUGAAAGAUCAGAAGCUGGUGUUUGUGUAUCUACUAGUGGUAGAUGGGUACUUA [DMSMaPseq_invitro_SARS-CoV-2_Multi_29_ComplexLevel_1]
2. UUCACAGACUCUCCAAAAGUCUGAA [hsa-mir-4670]
3. ACAACAACCAUAAAACCAGUUACUUAUAAAUUGGAUGGUGUUGU
4. UAAUGAUUGGAGUCAUUUUCAGAGCAUUA [hsa-mir-3202-1]
5. UCCCCAGAAGCUGAGGAUUAGGGGA [hsa-mir-6503]

## Result
-0.0976
-0.404
-0.38
-0.262
-0.131

For the 5 sequences below, give their pull-down binding Z-score values.
1. GACAUUGCCAGAGGAUGGGCAGCAGAC [hsa-mir-6855]
2. ACAGAUCUUUACCAGGAGUUUUCUGU
3. UAGAUGUUAUAAAAAUAUAUAUCUG [hsa-mir-4680]
4. UUGUUGUUAUUACU [hsa-mir-378d-1]
5. CAGUAAGCCUUGACUUAUGGCUAAAUGCUUC [hsa-mir-4273]

## Result
0.334
-0.827
-0.189
-0.259
0.0166

Would you be so kind as to report pull-down binding Z-score for each listed record?
1. AAUAAAGUAUGUCCACAGCUGAAAGGACAUACUUUAUU [hsa-mir-4464]
2. CCCUUGUCUUCCCAGAG [hsa-mir-4739]
3. UGCAUAAAUGAAGCUGAAUGA [hsa-mir-6134]

## Result
1: -0.236; 2: -0.41; 3: 0.378

Item: CUGCAGGGACUGUGACACUGAA [hsa-mir-6816] | System: TO-3-N3-2 (biotin conjugate) | pull-down binding Z-score: 0.24
